// data source = the supplement of paper PMC10567573

B1: NP_009172.2 (parent)
chain: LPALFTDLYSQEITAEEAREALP

Variants of: B1
assay_name: protein stability index of a GFP-peptide fusion (GPS, HEK-293T) (PSI 1-6); higher = more stable;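 note: lentivirally expressed fusion library, cells FACS-sorted into six equal-sized GFP/DsRed ratio bins, PSI computed from sequencing read fractions per bin weighted by bin number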
conditions: c terminus: native
Where protein stability index equals or exceeds 3, the correct label is true; where it does not, the label is false.

• LPALFTDKYSQEITAEEAREALP [L8K] = false
• LPALFTGLYSQEITAEEAREALP [D7G] = true
• LPHLFTDLYSQEITAEEAREALP [A3H] = false
• LPALFTDLYSQEITAETAREALP [E17T] = false
• LPCLFTDLYSQEITAEEAREALP [A3C] = false
• LPALFTDLYSQEITAEEAREARP [L22R] = true
• LPALFTDLYSQELTAEEAREALP [I13L] = false
• LPALFTDLYSGEITAEEAREALP [Q11G] = true
• LPALFTDLYSQEIQAEEAREALP [T14Q] = false
• LPALSTDLYSQEITAEEAREALP [F5S] = true
• LPALFTDLYSQEITAEEARPALP [E20P] = false
• LPALFTDLYSQEITAEEEREALP [A18E] = false
• LPALFTDLYSQEITLEEAREALP [A15L] = false
• LPALFTDLYSQEISAEEAREALP [T14S] = false
• LPALFTDLYSQEITAEMAREALP [E17M] = false
• LPALFMDLYSQEITAEEAREALP [T6M] = true
• LPALFTDLYYQEITAEEAREALP [S10Y] = false
• LPALFTDLYSAEITAEEAREALP [Q11A] = false
• LPALFTDLNSQEITAEEAREALP [Y9N] = true
• LHALFTDLYSQEITAEEAREALP [P2H] = false
• LPALFTFLYSQEITAEEAREALP [D7F] = false
